target of assay: organic anion transporting polypeptide 1B1 (OATP1B1) (Homo sapiens (Human))
Sequence (Q9Y6L6 whole entry): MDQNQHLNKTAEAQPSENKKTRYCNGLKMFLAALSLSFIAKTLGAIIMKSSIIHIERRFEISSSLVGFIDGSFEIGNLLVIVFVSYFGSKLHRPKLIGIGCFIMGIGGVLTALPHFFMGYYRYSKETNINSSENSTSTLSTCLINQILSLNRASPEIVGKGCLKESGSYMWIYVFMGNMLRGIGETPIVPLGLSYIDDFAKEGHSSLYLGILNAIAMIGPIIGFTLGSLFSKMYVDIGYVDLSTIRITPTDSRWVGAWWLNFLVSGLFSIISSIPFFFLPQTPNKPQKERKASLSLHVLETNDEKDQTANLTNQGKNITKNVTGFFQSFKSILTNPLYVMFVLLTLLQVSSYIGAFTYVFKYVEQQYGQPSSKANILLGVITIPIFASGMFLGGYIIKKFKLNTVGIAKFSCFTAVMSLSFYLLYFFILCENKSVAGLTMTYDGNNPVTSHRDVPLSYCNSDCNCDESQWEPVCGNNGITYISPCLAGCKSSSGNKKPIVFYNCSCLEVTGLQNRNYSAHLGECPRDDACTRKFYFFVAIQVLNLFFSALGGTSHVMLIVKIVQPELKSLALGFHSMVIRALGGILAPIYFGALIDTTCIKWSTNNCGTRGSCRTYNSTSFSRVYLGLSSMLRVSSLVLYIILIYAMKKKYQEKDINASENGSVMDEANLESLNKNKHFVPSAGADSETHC
assay notes: OATP assay in CHO-OATP1B1 cells;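 further: inhibition of probe substrate uptake into the cells, ten minutes exposure, accumulated substrate read by fluorescence once cells were lysed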
Starred links: 1 amine or outer side, 2 acyl side, 3 side chain; linkers in the order of their positions; H or OH if unused. Non-standard residues stand in square brackets, D forms with d. Residues, ends and D or L forms follow the SMILES beside them. X46 = C[C@H](CN1CC2CCC(C1)O2)[C@@H](C(=O)[*:2])N(C)[*:1]; MeBmt = C/C=C/C[C@@H](C)[C@@H](O)[C@H](NC)C(=O)O; NMeL = CN[C@@H](CC(C)C)C(=O)O; NMeV = CN[C@H](C(=O)O)C(C)C; dNMeA = CN[C@H](C)C(=O)O; Abu = CC[C@H](N)C(=O)O
test readout: pIC50
Reminder that pIC50 is minus the log10 of a molar concentration.

Task: pIC50 for C/C=C/C[C@@H](C)[C@@H](O)[C@H]1C(=O)N[C@@H](CC)C(=O)N(C)[C@H](C)C(=O)N(C)[C@@H]([C@H](C)CN2CC3CCC(C2)O3)C(=O)N[C@@H](C(C)C)C(=O)N(C)[C@@H](CC(C)C)C(=O)N[C@@H](C)C(=O)N[C@H](C)C(=O)N(C)[C@@H](CC(C)C)C(=O)N(C)[C@@H](CC(C)C)C(=O)N(C)[C@@H](C(C)C)C(=O)N1C [Compound 2.5.3] (cyclo([MeBmt][Abu][dNMeA][X46]V[NMeL]A[dA][NMeL][NMeL][NMeV])) ?
Result: 5.77
